assayed_system: alpha-1A adrenoceptor (Homo sapiens, UniProt P35348)
Construct: expressed in transfected cells; host or cells: CHO-K1
Sequence (P35348 1-466): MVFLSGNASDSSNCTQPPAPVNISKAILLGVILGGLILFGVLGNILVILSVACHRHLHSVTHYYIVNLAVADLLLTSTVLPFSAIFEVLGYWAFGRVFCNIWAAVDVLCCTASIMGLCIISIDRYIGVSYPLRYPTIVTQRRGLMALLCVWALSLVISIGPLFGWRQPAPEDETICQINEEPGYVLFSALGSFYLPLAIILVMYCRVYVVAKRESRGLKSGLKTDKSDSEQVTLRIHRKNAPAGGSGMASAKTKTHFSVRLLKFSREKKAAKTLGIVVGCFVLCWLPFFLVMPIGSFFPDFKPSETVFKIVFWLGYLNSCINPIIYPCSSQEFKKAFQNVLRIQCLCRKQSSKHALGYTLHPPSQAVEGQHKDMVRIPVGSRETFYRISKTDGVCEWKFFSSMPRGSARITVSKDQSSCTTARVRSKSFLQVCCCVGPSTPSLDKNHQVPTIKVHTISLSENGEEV
method_summary: [3H]prazosin binding (alpha1-adrenoceptor) assay, alpha-1A
test_context: membranes of transfected CHO-KI cells, read-out: affinity towards the alpha-1A adrenoceptor (pKi) (converted)
readout_kind: Ki (nM)

1 = COc1cc2nc(N3CCc4c(ncn4Cc4ccccc4)C3)[nH]c(=O)c2cc1OC
2 = COCCN(C)c1ncnc2c1CCN(c1nc3cc(OC)c(OC)cc3c(=O)[nH]1)C2
Return label of the item with the larger Ki. Candidates: 1 , 2 . State your choice using its label.
2
